Molecular target: T1, mouse EGFL7 (mEGFL7-CB-His) (mouse, UniProt Q9QXT5 22-275)
T1 sequence: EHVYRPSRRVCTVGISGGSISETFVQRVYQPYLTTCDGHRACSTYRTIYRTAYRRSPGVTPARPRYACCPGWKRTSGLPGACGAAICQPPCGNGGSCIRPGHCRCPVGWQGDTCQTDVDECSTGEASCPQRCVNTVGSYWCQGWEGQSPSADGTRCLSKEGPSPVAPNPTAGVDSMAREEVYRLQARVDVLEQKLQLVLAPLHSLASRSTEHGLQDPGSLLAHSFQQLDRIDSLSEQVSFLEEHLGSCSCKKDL
Assay: SPR (Biacore), IgG over immobilized mEGFL7-CB at 37 C;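 further: IgG injected as twofold series from 0.5 to 1000 nM, 3 min association and 3.5 min dissociation, reference flow cell subtracted, kinetics fitted to 1:1 Langmuir model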
Please respond with reported kon for every item in the list.
Form entry: value (M⁻¹ s⁻¹) — number only.

stdin: Form field: reported kon of 18F7.v9 IgG (antibody, V domains shown, IgG; Kabat numbering) VH: EVQLVESGGGLVQPGGSLRLSCAASGYTFIDKYMNWVRQAPGKGLEWVGDINLDNGGTHYNQKFKGRFTISRDKSKNTAYLQMNSLRAEDTAVYYCAREGVYHDYDDYAMDYWGQGTLVTVSS VL: DIQMTQSPSSLSASVGDRVTITCRTSQSLVHINGITYLHWYQQKPGKAPKLLIYRVSNRFSGVPSRFSGSGSGTDFTLTISSLQPEDFATYYCSQSTHVPLTFGQGTKVEIK
stdout: 59000

stdin: Return reported kon; argument: 18F7.v10 IgG (antibody, V domains shown, IgG; Kabat numbering) VH: EVQLVESGGGLVQPGGSLRLSCAASGYTFIDYYMNWVRQAPGKGLEWVGDINLDNGGTHYNQKFKGRFTISRDKSKNTAYLQMNSLRAEDTAVYYCAREGVYHPYDDYAMDYWGQGTLVTVSS VL: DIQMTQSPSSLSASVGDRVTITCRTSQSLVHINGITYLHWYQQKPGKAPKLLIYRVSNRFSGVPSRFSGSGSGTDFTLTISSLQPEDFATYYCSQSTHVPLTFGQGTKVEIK
stdout: 160000

stdin: Endpoint output: kon of 18F7.v3 IgG (antibody, name in Kabat numbering, V domains shown, IgG; Kabat numbering; also called 18F7-KA) VH: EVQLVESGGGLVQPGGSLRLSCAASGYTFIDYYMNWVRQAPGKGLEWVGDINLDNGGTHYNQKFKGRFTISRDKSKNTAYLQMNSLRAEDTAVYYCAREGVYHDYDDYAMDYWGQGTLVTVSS VL: DIQMTQSPSSLSASVGDRVTITCRTSQSLVHINGITYLHWYQQKPGKAPKLLIYRVSNRFSGVPSRFSGSGSGTDFTLTISSLQPEDFATYYCSQSTHVPLTFGQGTKVEIKR . Value?
stdout: 55000
